Reported CTI (±SE), cytotoxicity index by item:
- System: Chinese hamster ovary (CHO) cell line AS52, clone 11-4-8
- ASSAY INFO: CHO cell chronic cytotoxicity assay
- Format: cell-based
- ASSAY CONDITIONS: mean bootstrap value, calculated as (LC50)^−1(10^3); CHO cells, 72 h
Please state the figure in M⁻¹; there is no need to write the unit.

# example entries with known answers
compound="O=CC(Cl)Br (stereo not drawn) [BCAL, bromochloroacetaldehyde]" test_system="Chinese hamster ovary (CHO) cell line AS52, clone 11-4-8" reported_metric="CTI (±SE), cytotoxicity index" data_value=207.4
compound="O=CCBr [BAL, bromoacetaldehyde]" test_system="Chinese hamster ovary (CHO) cell line AS52, clone 11-4-8" reported_metric="CTI (±SE), cytotoxicity index" data_value=64.6

For the next question, use this compound.
Data request: Kindly state the measured CTI (±SE), cytotoxicity index obtained for O=CC(Cl)(Br)Br [DBCAL, dibromochloroacetaldehyde] with Chinese hamster ovary (CHO) cell line AS52, clone 11-4-8.
Data returned: 200.2
